Assay: NCI Yeast Anticancer Drug Screen. Data for the sgs1 mgt1 strain (AID 161);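 note: 0% = growth of cultures given vehicle only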
Conditions: S. cerevisiae sgs1 mgt1 strain, at 50.0 µM, stronger effect = higher value
Description: Growth inhibition of yeast strains with defined genetic alterations is measured as a screen for potential anti-cancer activity. Selected strains with alterations in DNA damage repair or cell cycle control were exposed to compounds and growth inhibition was measured relative to vehicle treated controls. The strain used in this assay is sgs1 mgt1
About 79,000 compounds went through this panel and 15% of them were active in at least one assay; those are over-represented in the sample as a whole.
Answer each item with its documented growth inhibition.
Numbers only, in %.

Recorded growth inhibition, per entry:
{"columns": ["compound", "units", "growth inhibition"],
 "data": [
  ["CC(C)c1ccc(C(=O)OCC2CCCO2)cc1 (stereo not given)", "%", 6.5],
  ["O=C(O)COc1ccc(C(=O)/C(SS/C(C(=O)c2ccc(OCC(=O)O)c(Cl)c2Cl)=C2\\C=C(c3ccccc3Cl)SS2)=C2/C=C(c3ccccc3Cl)SS2)c(Cl)c1Cl", "%", -6.05],
  ["CSC1NC(c2ccc(Cl)cc2)=C(C#N)C(=O)N1C1OCC(OC(C)=O)C(OC(C)=O)C1OC(C)=O (stereo not given)", "%", -24.2]
]}

Could you tell me growth inhibition for each of these compounds? They are listed below.
1. Cc1ccc(NCCN)c2c(=O)c3cc(O)ccc3sc12
2. BrC/C(=N\N1CCCCC1)c1ccc(Br)cc1

**Result**
1. 40.4
2. -8.05
